# System: Lepidium sativum
# Measurement Notes: Herbicidal activity against Lepidium sativum assessed as inhibition of seedlings growth after 2 days
# Type: functional
Observed Property: growth inhibition (GI) (%)
The figure you give is taken to be in %; do not add the unit.

[in] Note growth inhibition (GI) for the molecule shown: C/C=C/C1=C(Cl)C(=O)[C@@H](Cl)[C@@]1(O)C(=O)OC [(+)-CRYPTOSPORIPSIN]
[out] 100

[in] Specify measured growth inhibition (GI) for C/C=C(\Cl)C1=CC(=O)[C@@]23C[C@@H]2C(C)(C)O[C@@]3(O)C1=O [(-)-MYCORRHIZIN A] .
[out] 100

[in] Give the value of growth inhibition (GI) reported for the following: C=C1C(=O)O[C@H]2C(=O)O[C@H](CC)[C@@H]12 [4-EPI-ETHIOSOLIDE]
[out] 100

[in] Tell me growth inhibition (GI) reported for C[C@@H]1Cc2cccc(O)c2C(=O)O1 [(-)-(R)-MELLEIN]
[out] 100
